# chromatographic logP listing for each entry below
test_summary: logP determination by HPLC on a reversed-phase column (EEC Directive 79/831 Annex V.A8)
measurement_conditions: reversed-phase C18 HPLC column

- compound_structure_string: "CCc1ccc(F)cc1CN(C(=O)c1c(C(F)F)nn(C)c1F)C1CC1"
  chromatographic logP: 3.41
- compound_structure_string: "Cc1ccc(C(F)(F)F)c(CN(C(=O)c2c(C(F)F)nn(C)c2F)C2CC2)c1"
  chromatographic logP: 3.78
- compound_structure_string: "Cc1ccc(C2CC2)c(CN(C(=O)c2c(C(F)F)nn(C)c2F)C2CC2)c1"
  chromatographic logP: 3.76
- compound_structure_string: "CCc1ccc(C)cc1CN(C(=O)c1c(C(F)F)nn(C)c1F)C1CC1"
  chromatographic logP: 3.7
- compound_structure_string: "CC(C)c1cccc(F)c1CN(C(=O)c1c(C(F)F)nn(C)c1F)C1CC1"
  chromatographic logP: 3.65
- compound_structure_string: "Cc1ccc(C(C)(C)C)c(CN(C(=O)c2c(C(F)F)nn(C)c2F)C2CC2)c1"
  chromatographic logP: 4.36
- compound_structure_string: "CCc1cc(C)c(C)cc1CN(C(=O)c1c(C(F)F)nn(C)c1F)C1CC1"
  chromatographic logP: 4.04
- compound_structure_string: "CC(C)c1ccccc1CN(C(=O)c1c(C(F)F)nn(C)c1F)C1CC1"
  chromatographic logP: 3.35
- compound_structure_string: "CCc1ccc(Cl)cc1CN(C(=O)c1c(C(F)F)nn(C)c1F)C1CC1"
  chromatographic logP: 3.76
- compound_structure_string: "Cn1nc(C(F)F)c(C(=O)N(Cc2cc(Cl)ccc2C(F)(F)F)C2CC2)c1F"
  chromatographic logP: 3.8
- compound_structure_string: "CC(C)c1ccc(F)cc1CN(C(=O)c1c(C(F)F)nn(C)c1F)C1CC1"
  chromatographic logP: 3.7
- compound_structure_string: "Cc1ccc(C(C)C)c(CN(C(=O)c2c(C(F)F)nn(C)c2F)C2CC2)c1"
  chromatographic logP: 3.99
- compound_structure_string: "Cn1nc(C(F)F)c(C(=O)N(Cc2c(C(F)(F)F)ccc(Cl)c2F)C2CC2)c1F"
  chromatographic logP: 3.62
- compound_structure_string: "Cn1nc(C(F)F)c(C(=O)N(Cc2ccccc2C2CC2)C2CC2)c1F"
  chromatographic logP: 3.44
- compound_structure_string: "Cn1nc(C(F)F)c(C(=O)N(Cc2ccccc2C(C)(C)C)C2CC2)c1F"
  chromatographic logP: 4.06
- compound_structure_string: "Cn1nc(C(F)F)c(C(=O)N(Cc2c(Cl)cccc2C(F)(F)F)C2CC2)c1F"
  chromatographic logP: 3.46
- compound_structure_string: "Cn1nc(C(F)F)c(C(=O)N(Cc2cc(F)ccc2C2CCCC2)C2CC2)c1F"
  chromatographic logP: 4.21
- compound_structure_string: "Cn1nc(C(F)F)c(C(=O)N(Cc2cc(F)ccc2C2CC2)C2CC2)c1F"
  chromatographic logP: 3.46
- compound_structure_string: "CC(C)c1ccc(Cl)cc1CN(C(=O)c1c(C(F)F)nn(C)c1F)C1CC1"
  chromatographic logP: 4.09
